Molecular target: T1, Human OX40R-IgG1 fusion protein (human, UniProt P43489 29-208)
T1 construct: range 1-208; Purified on protein G; also called OX40-IgG1; OX40-IgG; not shown: constant region of human IgG1 (hinge region, CH2 and CH3), amino acids 98-330 of SWISSPROT Acc; No. P01857
T1 sequence (looked up): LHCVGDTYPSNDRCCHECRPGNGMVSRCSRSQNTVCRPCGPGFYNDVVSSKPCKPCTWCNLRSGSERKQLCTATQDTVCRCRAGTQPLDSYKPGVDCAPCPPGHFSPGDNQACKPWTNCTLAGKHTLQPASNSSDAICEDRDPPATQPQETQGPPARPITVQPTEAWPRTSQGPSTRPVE
Assay: Alphascreen-based competition assay against OX40L-CD8 on OX40R-IgG1; P5-1 (amino acids 107-116)
ASSAY_ENDPOINT: Kd

Lab note: GYFSQEVNIS (Synthetic peptide (Epytop)) [Peptide P5-1 (amino acids 107-116 of human OX40L)] gave Kd of ~62 µM

Every entry's value here was drawn from patent US20070009964A1.
